Molecular target: Recombinant human JAK1 catalytic domain (Homo sapiens (Human), UniProt P23458)
Sequence (P23458 875-1153): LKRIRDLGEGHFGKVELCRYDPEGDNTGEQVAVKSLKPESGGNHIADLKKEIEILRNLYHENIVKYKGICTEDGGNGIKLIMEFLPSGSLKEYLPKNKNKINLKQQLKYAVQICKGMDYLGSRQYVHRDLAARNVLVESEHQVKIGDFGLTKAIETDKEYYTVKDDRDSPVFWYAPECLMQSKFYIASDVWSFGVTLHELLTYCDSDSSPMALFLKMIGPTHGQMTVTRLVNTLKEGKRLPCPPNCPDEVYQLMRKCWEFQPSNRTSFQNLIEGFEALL
Experiment: JAK1 kinase assay (Z'-LYTE Tyr 6 Peptide)
Type: biochemical
Details: JAK1 kinase assay, 0.3 uM concentration; read-out: inhibition percentage (IR %)
Experimental: JAK1/2/3 kinase assay are performed in vitro using Kit-Tyr 6 Peptide (Invitrogen, Cat. No. PV4122). TYK2 kinase assay are performed in vitro using Z′-LYTE™ Kinase Assay Kit-Tyr 3 Peptide (Invitrogen, Cat. No. PV3192). […] All compounds are initially tested at 8 different concentrations (1 μM down to 0.0003 μM) using a 1:3 serial dilution scheme.
Please go through the items and note down their inhibition at 0.3 µM.

Reported inhibition at 0.3 µM, molecule CN(c1ccc(S(=O)(=O)NCCO)cn1)[C@@H]1CCN(c2ncnc3[nH]ccc23)C1 : ____
50 to 100%

Another molecule to look at: CN(c1ncc(C#N)cc1F)[C@@H]1CCN(c2ncnc3[nH]ccc23)C1
50 to 100%

Also CN(C)CCNS(=O)(=O)c1ccc(N(C)[C@@H]2CCN(c3ncnc4[nH]ccc34)C2)nc1 , if possible.
50 to 100%

Ok, now Cc1ccc(CS(=O)(=O)Nc2ccc(N(C)[C@@H]3CCN(c4ncnc5[nH]ccc45)C3)nc2)cc1
50 to 100%

Note, next up: CNC(=O)c1ccc(N(C)[C@@H]2CCN(c3ncnc4[nH]ccc34)C2)nc1
20 to 50%

Could you do the same for CN(c1ccc(C#N)nc1)[C@@H]1CCN(c2ncnc3[nH]ccc23)C1 , please?
20 to 50%

Another: C[C@@H](NS(=O)(=O)c1ccc(N(C)[C@@H]2CCN(c3ncnc4[nH]ccc34)C2)nc1)c1ccc(F)cc1
50 to 100%

What about CN(c1ccc(C#N)nn1)[C@@H]1CCN(c2ncnc3[nH]ccc23)C1 ?
50 to 100%

Ref: patent US10111875B2
